- experimental system: TGF-beta1 (hTGF-beta1) (Homo sapiens, UniProt P01137 P01137:279-390)
- Sequence (P01137 279-390, one chain of several): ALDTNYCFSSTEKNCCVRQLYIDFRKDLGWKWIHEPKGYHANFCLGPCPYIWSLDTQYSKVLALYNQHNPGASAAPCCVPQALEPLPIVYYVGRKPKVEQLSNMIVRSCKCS
- experiment: filter; biphasic; Kd1 8.5±1.8 nM
- condition notes: tags: R&D Systems; biotinylated form (NFTG0) used for BIAcore; chain copies: 2

>  <binder>
40-54 (ssRNA, 2'-F C and U) RNA: GGGAGGACGAUGCGGUUAGGGGCGUCAACACCGCUAUCAUAACUUUCGCUUCCCCAGACGACUCGCCCGA

>  <u>
pM

>  <Kd>
6.75

$$$$
